Every entry's value here was drawn from ChEMBL document CHEMBL1759931.

# test_system: Adenosine receptor A2a (Homo sapiens)
# Sequence (P29274 whole entry): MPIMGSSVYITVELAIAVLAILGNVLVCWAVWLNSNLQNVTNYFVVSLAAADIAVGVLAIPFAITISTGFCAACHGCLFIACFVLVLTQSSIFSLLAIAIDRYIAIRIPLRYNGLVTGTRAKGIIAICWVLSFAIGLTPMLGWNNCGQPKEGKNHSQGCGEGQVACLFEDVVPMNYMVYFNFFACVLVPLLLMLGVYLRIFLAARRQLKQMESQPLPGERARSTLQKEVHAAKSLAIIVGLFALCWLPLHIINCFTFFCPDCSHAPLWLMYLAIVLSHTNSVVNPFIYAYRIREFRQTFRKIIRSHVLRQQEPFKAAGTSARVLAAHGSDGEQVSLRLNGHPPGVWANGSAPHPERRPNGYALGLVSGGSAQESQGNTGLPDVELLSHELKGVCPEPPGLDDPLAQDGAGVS
# method_description: Antagonist activity against human adenosine A2A receptor
Form field: Ki (one value per entry).
endpoint_name: Ki

>>> result("CC(C)(C)OC(=O)N1CCN(CCn2ncc3c2nc(N)n2c(=O)n(Cc4ccccc4)nc32)CC1")
"> 1.3 µM"
>>> result("CN(C)CCn1ncc2c1nc(N)n1c(=O)n(Cc3ccccc3)nc21")
"> 1.5 µM"
>>> result("CN(C)CCn1ncc2c1nc(N)n1c(=O)n(CC3CC3)nc21")
"> 1.5 µM"
>>> result("COCCOc1ccc(N2CCN(CCn3ncc4c3nc(N)n3c(=O)n(Cc5ccccc5)nc43)CC2)c(F)c1")
"> 1.3 µM"
